- target: mouse TMEM16A mutant R535A (Mus musculus, UniProt Q8BHY3, R535A)
- Construct: expressed in transfected cells; host or cells: HEK293T
- Sequence (Q8BHY3 whole entry R535A): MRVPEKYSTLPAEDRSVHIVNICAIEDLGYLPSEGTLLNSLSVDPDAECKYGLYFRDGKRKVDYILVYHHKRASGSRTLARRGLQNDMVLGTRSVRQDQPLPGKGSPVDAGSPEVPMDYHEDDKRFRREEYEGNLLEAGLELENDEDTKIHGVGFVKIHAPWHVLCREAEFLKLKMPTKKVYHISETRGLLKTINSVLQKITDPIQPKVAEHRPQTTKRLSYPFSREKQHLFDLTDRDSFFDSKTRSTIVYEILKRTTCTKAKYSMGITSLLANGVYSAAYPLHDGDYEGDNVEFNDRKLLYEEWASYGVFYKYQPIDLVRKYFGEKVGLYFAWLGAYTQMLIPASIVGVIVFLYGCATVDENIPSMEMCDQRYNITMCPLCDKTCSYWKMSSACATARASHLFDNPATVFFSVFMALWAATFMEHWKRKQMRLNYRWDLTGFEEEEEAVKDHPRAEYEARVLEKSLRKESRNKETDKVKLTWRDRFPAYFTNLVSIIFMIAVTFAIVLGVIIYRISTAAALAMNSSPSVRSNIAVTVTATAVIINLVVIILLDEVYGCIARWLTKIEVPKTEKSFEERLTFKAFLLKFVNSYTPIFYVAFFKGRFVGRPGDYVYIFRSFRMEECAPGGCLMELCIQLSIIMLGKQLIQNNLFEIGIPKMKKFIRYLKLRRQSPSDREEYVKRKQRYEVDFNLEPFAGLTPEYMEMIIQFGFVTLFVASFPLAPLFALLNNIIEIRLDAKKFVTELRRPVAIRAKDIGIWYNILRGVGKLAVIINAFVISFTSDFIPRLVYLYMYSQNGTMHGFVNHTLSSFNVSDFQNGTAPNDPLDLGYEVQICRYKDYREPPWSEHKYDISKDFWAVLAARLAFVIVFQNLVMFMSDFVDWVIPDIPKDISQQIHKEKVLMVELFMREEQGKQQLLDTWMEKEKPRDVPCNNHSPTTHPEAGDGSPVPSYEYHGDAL
- measurement protocol: Inside-out patch recording of 1PBC block, mutant R535A
- Type: cell-based
- condition context: R535A; V 40 mV
measurement type: IC50

query: Dear colleague, I am looking for the recorded IC50 of the following molecule: `N#Cc1c(C(F)(F)F)cc(O)n2c1nc1ccccc12`
result: 7.82 µM

====

- target: mouse TMEM16A mutant V511A (Mus musculus, UniProt Q8BHY3, V511A)
- Construct: expressed in transfected cells; host or cells: HEK293T
- Sequence (Q8BHY3 whole entry V511A): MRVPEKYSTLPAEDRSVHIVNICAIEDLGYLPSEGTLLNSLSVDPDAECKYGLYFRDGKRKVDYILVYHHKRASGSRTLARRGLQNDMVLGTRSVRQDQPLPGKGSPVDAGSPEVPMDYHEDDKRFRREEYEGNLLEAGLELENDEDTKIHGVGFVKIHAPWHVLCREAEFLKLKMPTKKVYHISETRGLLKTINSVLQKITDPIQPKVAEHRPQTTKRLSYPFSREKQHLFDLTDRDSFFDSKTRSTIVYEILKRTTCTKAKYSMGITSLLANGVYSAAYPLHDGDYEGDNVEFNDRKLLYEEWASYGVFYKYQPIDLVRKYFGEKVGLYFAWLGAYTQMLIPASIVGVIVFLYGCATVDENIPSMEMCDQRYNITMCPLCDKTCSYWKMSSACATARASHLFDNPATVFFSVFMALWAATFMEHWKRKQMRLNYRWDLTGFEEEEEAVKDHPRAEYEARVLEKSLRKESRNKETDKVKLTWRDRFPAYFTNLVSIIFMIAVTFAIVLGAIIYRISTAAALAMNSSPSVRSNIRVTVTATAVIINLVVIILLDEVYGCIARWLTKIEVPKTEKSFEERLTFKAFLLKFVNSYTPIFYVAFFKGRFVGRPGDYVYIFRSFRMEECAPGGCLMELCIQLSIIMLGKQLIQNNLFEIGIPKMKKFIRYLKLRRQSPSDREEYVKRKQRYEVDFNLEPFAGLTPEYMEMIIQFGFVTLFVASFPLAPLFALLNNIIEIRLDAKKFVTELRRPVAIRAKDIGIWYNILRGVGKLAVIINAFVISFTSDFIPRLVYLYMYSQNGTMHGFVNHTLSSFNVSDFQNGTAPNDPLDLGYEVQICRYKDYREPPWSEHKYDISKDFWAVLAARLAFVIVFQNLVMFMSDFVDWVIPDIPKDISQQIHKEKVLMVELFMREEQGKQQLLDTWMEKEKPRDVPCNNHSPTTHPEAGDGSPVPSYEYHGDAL
- measurement protocol: Inside-out patch recording of 1PBC block, mutant V511A
- Format: cell-based
- condition context: 40 mV; 2 µM Ca2+
measurement type: pIC50
As a rule, pIC50 stands for the negative log10 of the concentration, concentration in M.

query: Dear colleague, I am looking for the recorded pIC50 of the following compound: `N#Cc1c(C(F)(F)F)cc(O)n2c1nc1ccccc12`
result: 4.89

These entries and their values trace back to paper PMC9120017.
